Consider the following binders; for each one, report its OD450 nm.
# experimental.system: T1, monkey GPC3-His protein (monkey)
# T1 construct: Bought protein; also called monkey GPC3 protein
# test.protocol: ELISA, monkey GPC3-His coated; antibody 66.66 nM
Answers are plain numbers.

hAb001H1L1 (antibody, human IgG1, V domains shown, Humanized F2.169.2, H1+L1) VH: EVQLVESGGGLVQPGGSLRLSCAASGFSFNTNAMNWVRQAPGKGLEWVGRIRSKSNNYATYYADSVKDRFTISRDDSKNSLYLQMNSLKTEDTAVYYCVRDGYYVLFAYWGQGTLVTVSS VL: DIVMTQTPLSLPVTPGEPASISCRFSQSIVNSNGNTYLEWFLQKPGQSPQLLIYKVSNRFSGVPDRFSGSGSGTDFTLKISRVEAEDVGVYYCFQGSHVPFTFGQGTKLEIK = 2.55

[in] Give recorded OD450 nm. hAb001H2L1b (antibody, human IgG1, V domains shown, Humanized F2.169.2, H2+L1b) VH: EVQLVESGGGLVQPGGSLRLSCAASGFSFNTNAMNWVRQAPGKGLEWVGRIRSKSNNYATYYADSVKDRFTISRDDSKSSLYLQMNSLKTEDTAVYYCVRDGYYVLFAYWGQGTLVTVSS VL: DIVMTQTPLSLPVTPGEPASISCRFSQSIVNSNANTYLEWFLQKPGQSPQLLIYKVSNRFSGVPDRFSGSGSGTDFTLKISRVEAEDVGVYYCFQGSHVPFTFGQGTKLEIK
[out] 2.58
